From: patent US20240317858A1

Reported values of NCB (Normalized Cell Binding) for individual entries
# assayed-target: T1, Cynomolgus CD3 on HSC-F cells (cynomolgus, UniProt Q95LI5 22-198)
# T1 construct: whole, on cells; Target is the endogenous CD3 complex on cells; also called Cyno CD3 HSC-F cells; Cyno CD3+ HSC-F cells
# T1 sequence (Q95LI5 22-198): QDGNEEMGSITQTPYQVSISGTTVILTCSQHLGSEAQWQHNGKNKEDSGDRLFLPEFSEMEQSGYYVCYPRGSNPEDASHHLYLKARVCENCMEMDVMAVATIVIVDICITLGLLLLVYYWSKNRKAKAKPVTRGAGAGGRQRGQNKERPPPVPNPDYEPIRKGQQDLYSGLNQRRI
# method: flow cytometry, 100 nM IgG1, pH 7.4

binder | NCB (Normalized Cell Binding)
Antibody No. A004 (ADI-26920) IgG1 (antibody, V domains shown, IgG1, CHO-produced) VH: QVQLVQSGAEVKKPGASVKVSCKASGFNIKDYYMHWVRQAPGQRLEWMGWIDLENANTIYDAKFQGRVTITRDTSASTAYMELSSLRSEDTAVYYCGRDAYGRYFYDVWGQGTLVTVSS VL: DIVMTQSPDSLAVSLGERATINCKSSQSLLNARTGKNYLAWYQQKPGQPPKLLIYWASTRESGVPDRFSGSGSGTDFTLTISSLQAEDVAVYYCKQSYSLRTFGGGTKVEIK | 348

Name the recorded NCB (Normalized Cell Binding) of the binder listed here: Antibody No. V007 (ADI-67450) IgG1 (antibody, V domains shown, IgG1, CHO-produced) VH: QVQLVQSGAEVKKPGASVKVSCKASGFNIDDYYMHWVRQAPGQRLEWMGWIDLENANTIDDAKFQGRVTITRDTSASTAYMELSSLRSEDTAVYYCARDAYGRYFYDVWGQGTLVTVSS VL: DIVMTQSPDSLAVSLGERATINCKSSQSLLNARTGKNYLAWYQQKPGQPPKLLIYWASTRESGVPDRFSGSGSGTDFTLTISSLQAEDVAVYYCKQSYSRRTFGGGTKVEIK
368

Name the recorded NCB (Normalized Cell Binding) of the binder listed here: Antibody No. V002 (ADI-67445) IgG1 (antibody, V domains shown, IgG1, CHO-produced) VH: QVQLVQSGAEVKKPGASVKVSCKASGFNIKDYYMHWVRQAPGQRLEWMGWIDLENAETIYDAKFQDRVTITRDTSASTAYMELSSLRSEDTAVYYCARDAYGRYFYDEWGQGTLVTVSS VL: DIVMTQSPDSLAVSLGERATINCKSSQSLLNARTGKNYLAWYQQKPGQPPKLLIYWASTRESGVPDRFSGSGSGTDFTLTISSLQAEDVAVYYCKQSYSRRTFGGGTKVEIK
388

Name the recorded NCB (Normalized Cell Binding) of the binder listed here: Antibody No. V019 (ADI-76362) IgG1 (antibody, V domains shown, IgG1, CHO-produced) VH: QVQLVQSGAEVKKPGASVKVSCKASGFNIKDYYMHWVRQAPGQRLEWMGWIDLEEGDTIYDAKFQGRVTITRDTSASTAYMELSSLRSEDTAVYYCARDAYGRYFYDVWGQGTLVTVSS VL: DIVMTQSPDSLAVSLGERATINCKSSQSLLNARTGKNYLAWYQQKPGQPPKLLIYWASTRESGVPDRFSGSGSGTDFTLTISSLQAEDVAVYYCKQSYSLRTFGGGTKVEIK
373

Name the recorded NCB (Normalized Cell Binding) of the binder listed here: Antibody No. V009 (ADI-70326) IgG1 (antibody, V domains shown, IgG1, CHO-produced) VH: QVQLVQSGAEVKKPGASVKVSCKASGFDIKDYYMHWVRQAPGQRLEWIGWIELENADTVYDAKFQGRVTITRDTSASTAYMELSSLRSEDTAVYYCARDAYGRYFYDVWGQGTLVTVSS VL: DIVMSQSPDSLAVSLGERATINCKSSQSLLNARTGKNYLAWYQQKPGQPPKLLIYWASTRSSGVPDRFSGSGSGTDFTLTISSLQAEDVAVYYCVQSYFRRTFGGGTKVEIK
396

Name the recorded NCB (Normalized Cell Binding) of the binder listed here: Antibody No. A005 (ADI-26921) IgG1 (antibody, V domains shown, IgG1, CHO-produced) VH: QVQLVQSGAEVKKPGASVKVSCKASGFNIKDYYMHWVRQAPGQRLEWMGWIDLEEGNTIYDAKFQGRVTITRDTSASTAYMELSSLRSEDTAVYYCARDAYGRYFYDVWGQGTLVTVSS VL: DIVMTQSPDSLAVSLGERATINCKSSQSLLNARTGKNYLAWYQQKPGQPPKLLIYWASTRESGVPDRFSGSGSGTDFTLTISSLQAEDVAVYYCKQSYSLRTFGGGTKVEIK
364
